Sourced from patent US20090030033A1

- Study Target: human GlyT1b (Homo sapiens)
- Construct: expressed in transfected cells
- Sequence (P48067 1-652 isoform P48067-3): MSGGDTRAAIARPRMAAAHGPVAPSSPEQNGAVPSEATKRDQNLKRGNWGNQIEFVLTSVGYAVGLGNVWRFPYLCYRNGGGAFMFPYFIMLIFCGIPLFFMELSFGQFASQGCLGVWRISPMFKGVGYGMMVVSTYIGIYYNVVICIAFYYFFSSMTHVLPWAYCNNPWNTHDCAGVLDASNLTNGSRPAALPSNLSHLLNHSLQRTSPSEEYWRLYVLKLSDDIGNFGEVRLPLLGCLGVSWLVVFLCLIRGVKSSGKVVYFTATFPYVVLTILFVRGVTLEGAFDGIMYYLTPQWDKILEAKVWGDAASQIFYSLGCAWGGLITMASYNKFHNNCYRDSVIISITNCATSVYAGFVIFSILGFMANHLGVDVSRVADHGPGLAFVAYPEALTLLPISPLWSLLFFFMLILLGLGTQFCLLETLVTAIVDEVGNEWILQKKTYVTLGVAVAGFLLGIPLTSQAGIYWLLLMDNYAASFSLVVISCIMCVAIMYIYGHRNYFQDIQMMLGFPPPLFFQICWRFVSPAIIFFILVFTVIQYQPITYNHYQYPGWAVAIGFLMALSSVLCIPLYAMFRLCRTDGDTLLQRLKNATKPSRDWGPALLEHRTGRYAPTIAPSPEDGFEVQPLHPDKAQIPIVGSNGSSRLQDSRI
- Protocol Notes: [3H]Glycine Uptake Assay (SPA) in hGlyT1b/CHO cells
- Type: cell-based
- Applied Conditions: compounds of Formula Ib, read at 2 h
Endpoint Label: pIC50
Expect pIC50 as a plain number equal to -log10 of the molar concentration.

Example cases with answers are listed next.
Molecule	pIC50
CN1CC2CCC1(C(NC(=O)c1ccc(F)cc1Cl)c1ccccc1)CC2 (stereo not drawn) [drawing 58]	8.11
COc1cccc(Cl)c1C(=O)NC(c1ccccc1)C12CCC(CC1)CN2C (stereo not drawn)	8.50
COc1ccc(Cl)c(C(=O)NC(c2ccccc2)C23CCC(CC2)CN3C)c1 (stereo not drawn)	7.49
CN1CC2CCC1(C(NC(=O)c1ccc(Cl)cc1Cl)c1ccccc1)CC2 (stereo not drawn)	8.19
Cc1c(F)cccc1C(=O)NC(c1ccccc1)C12CCC(CC1)CN2C (stereo not drawn)	8.59

Inquiry: I'd like to know its pIC50. The molecule in question is COc1cccc(Cl)c1C(=O)N[C@H](c1ccccc1)C12CCC(CC1)CN2C
Reply text: 8.32

Inquiry: Please give the measured pIC50 for this molecule: CN1CC2CCC1(C(NC(=O)c1c(Cl)cccc1Br)c1ccccc1)CC2 (stereo not drawn)
Reply text: 7.92

Inquiry: Item CCc1ccccc1C(=O)N[C@H](c1ccccc1)C12CCC(CC1)CN2C has what recorded pIC50?
Reply text: 9.02

Inquiry: Can you share its pIC50? I mean this molecule: CN1CC2CCC1([C@H](NC(=O)c1ccc(Cl)cc1Cl)c1ccccc1)CC2
Reply text: 7.95

Inquiry: Look up pIC50 for this molecule: CSc1ccccc1C(=O)NC(c1ccccc1)C12CCC(CC1)CN2C (stereo not drawn)
Reply text: 8.53

Inquiry: pIC50 for CN1CC2CCC1(C(NC(=O)c1c(F)cccc1C(F)(F)F)c1ccccc1)CC2 (stereo not drawn) ?
Reply text: 7.19

Inquiry: Report pIC50 for CN1CC2CCC1(C(NC(=O)c1ccccc1Br)c1ccccc1)CC2 (stereo not drawn) please.
Reply text: 7.98

Inquiry: Which pIC50 value belongs to CCOc1ccccc1C(=O)N[C@H](c1ccccc1)C12CCC(CC1)CN2C ?
Reply text: 6.47

Inquiry: Return reported pIC50; argument: CN1CC2CCC1([C@H](NC(=O)c1ccccc1C(F)(F)F)c1ccccc1)CC2
Reply text: 7.30

====

- Study Target: human GlyT1b (Homo sapiens)
- Construct: expressed in transfected cells
- Protocol Notes: [3H]Glycine Uptake Assay (SPA) in hGlyT1b/CHO cells
- Format: cell-based
- Applied Conditions: compounds of Formula Ib, read at 2 h
List of pIC50 values.
# pIC50 = -log10(concentration in molar units)

Molecule	pIC50
CN1CC2CCC1([C@H](NC(=O)c1cccc(F)c1Cl)c1ccccc1)CC2	8.23

Inquiry: What pIC50 value was documented for this molecule, Cc1cccc(Br)c1C(=O)NC(c1ccccc1)C12CCC(CC1)CN2C (stereo not shown) ?
Reply text: 8.87

Inquiry: Form field: reported pIC50 of Cc1cccc(Cl)c1C(=O)NC(c1ccccc1)C12CCC(CC1)CN2C (stereo not shown)
Reply text: 8.64

Inquiry: # input molecule: CN1CC2CCC1(C(NC(=O)c1cccc(C(F)(F)F)c1F)c1ccccc1)CC2 (stereo not shown) ; wanted: its pIC50
Reply text: 7.04

Inquiry: State the recorded pIC50 for this entry: Cc1ccccc1C(=O)NC(c1ccccc1)C12CCC(CC1)CN2C (stereo not shown)
Reply text: 8.46

Inquiry: Fill blank: measured pIC50 of the molecule CN1CC2CCC1(C(NC(=O)c1ccccc1OC(F)(F)F)c1ccccc1)CC2 (stereo not shown) is ____.
Reply text: 7.87

Inquiry: Value lookup for pIC50; key = CN1CC2CCC1(C(NC(=O)c1ccccc1Cl)c1ccccc1)CC2 (stereo not shown)
Reply text: 7.19
